Values were extracted from PubChem BioAssay (NCI).

growth inhibition overview
assay: NCI Yeast Anticancer Drug Screen. Data for the bub3 strain (AID 167); settings: S. cerevisiae bub3 mutant strain, at 50.0 µM, hits give high values
Compounds without any hit were thinned out: in the full panel of roughly 79,000, 15% have a hit.
Note: unit % is implicit; provide only the numeric part.

Past entries and their recorded results:
COc1ccc(CSc2nc3ccccc3nc2-c2cccs2)cc1; -24.9
COc1ccc(OCC(=O)N2CCCCC2)cc1; 13.2
CCOC(=O)CC1c2ccc(O)cc2OC(=O)C1c1ccc(N)cc1 (configuration not stated); -19.2
Cc1ccc(S(=O)(=O)N/N=C/c2ccccc2)cc1; 8.7

Now for another entry.
Fill in: growth inhibition of N#Cc1c(-c2cccn(-c3ccccc3)c2=O)cc(-c2ccccc2)[nH]c1=O is ___ 0.9

---

Listed below: growth inhibition values for each entry.
assay: NCI Yeast Anticancer Drug Screen. Data for the sgs1 mgt1 strain (AID 161);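 also: 0% = growth of cultures given vehicle only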; conditions: S. cerevisiae sgs1 mgt1 strain, at 50.0 µM, hits give high values
The panel holds about 79,000 compounds, 15% with a hit somewhere; the sample as a whole holds those more often.
Express your answer in %, writing the number without its unit.

Consider the following illustrative entries.
NC(=O)/C=C/c1ccc([N+](=O)[O-])cc1; -9
CNC(=S)N(C)c1ccccc1; -15.9
OC(CBr)(c1ccccc1)c1ccccc1; 19.9
CCOC(=O)C(CN(CC)CC)c1ccccc1 (configuration not stated); -3.25
Cc1cccc(C)c1NC(=O)CCC/C(CC(=O)c1ccc(F)cc1)=N\NC(=O)C(=O)NN; 2.4

Please look up its growth inhibition: Cc1cccc(/C=C/c2cccc[n+]2[O-])[n+]1[O-] -19.9

Need growth inhibition, item COC(=O)/C(=C\C(=O)c1ccc(Br)cc1)NN=C(c1ccccc1)c1ccccc1 -3.3

Data request, read-out growth inhibition, for COc1cc(C=Nc2ccccc2)ccc1OC(=O)c1ccccc1 17.6

Would you kindly share the measured growth inhibition for Nc1nc(-c2cc(-c3ccco3)nc(N)n2)cc(-c2ccco2)n1 ? -20.8

Reported growth inhibition for O=c1ccc2c(-c3ccccc3O)c3ccc(O)cc3oc-2c1 : what is it? 85

Which growth inhibition reading was recorded for the molecule C=C1C(=O)OC2CC3(CO3)C3C(O)C(O)CC3(C)CC12 (configuration not stated) ? -14.2

Could you share which growth inhibition value was measured for Nc1ccn([C@@H]2C=C(CO)[C@@H](O)[C@H]2O)c(=O)n1 ? -22.5

---

Experiment: NCI Yeast Anticancer Drug Screen. Data for the mlh1 rad18 strain (AID 175)
Details: S. cerevisiae mlh1 rad18 strain growth inhibition; at 50.0 µM; hits give high values
Experimental: Growth inhibition of yeast strains with defined genetic alterations is measured as a screen for potential anti-cancer activity. Selected strains with alterations in DNA damage repair or cell cycle control were exposed to compounds and growth inhibition was measured relative to vehicle treated controls. The strain used in this assay is mlh1 rad18
Compounds without any hit were thinned out: in the full panel of roughly 79,000, 15% have a hit.
assay.readout: growth inhibition (%)
Just the number in %, nothing appended.

Name the recorded growth inhibition for Cc1cccc(C(=O)NN)c1O . 22.2

Quick one: growth inhibition for CC12CC3C(CC1SCC(=O)O2)C3(C)C (configuration not stated) ? -26.2

Could you tell me which growth inhibition is on file for CCN(C(=O)NC(C)(C)C)c1cccc(C)c1 ? 5.8

I am curious: what growth inhibition value has been reported for CC[N+](C)(CC)CCOc1ccc(Cc2nc3c([nH]2)c(=O)n(C)c(=O)n3C)cc1 ? 19.6

Any idea what its growth inhibition is? The compound is Cc1cc2c(c(C)c1O)C(C)(C)CN2C(=O)C(C)(C)C -10.9

Reported growth inhibition for CCOC(=O)c1cn(C2OC(COC(=O)c3ccccc3)C(OC(=O)c3ccccc3)C2OC(=O)c2ccccc2)c(=O)nc1N (configuration not stated) : what is it? -7.15

What does the data say about its growth inhibition? Entry: N#CC(C(=N/O)/C(=N\O)C(C#N)c1ccccc1)c1ccccc1 (configuration not stated) 25.1

Data request, read-out growth inhibition, for O=C(O)C1COCOC1c1ccccc1 (configuration not stated) 6.9

Could you share which growth inhibition value was measured for CCC(=N)C(c1ccccc1)(c1ccccc1)C(C)CN(C)C (configuration not stated) ? 13.7

Look up growth inhibition for this compound: O=C1C(n2ccc(=O)[nH]c2=O)CCN1CCCl (configuration not stated) 12.5

So what does the record say about growth inhibition for Cc1cc(-c2ccccc2N)nc2ccccc12 ? 26.6

Given CC(O)c1ccccc1Br (configuration not stated) , state its recorded growth inhibition. -21

---

experiment: NCI Yeast Anticancer Drug Screen. Data for the sgs1 mgt1 strain (AID 161);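 also: 0% = growth of cultures given vehicle only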; settings: S. cerevisiae sgs1 mgt1 strain, at 50.0 µM, hits give high values
The panel holds about 79,000 compounds, 15% with a hit somewhere; the sample as a whole holds those more often.
Recorded growth inhibition for the following molecules
Give the value in % but do not write % after it.

State the recorded growth inhibition for this entry: Cc1ccc(/C=C2\CCCC(C(NO)c3ccc(C)cc3)C2=NO)cc1 (stereo not drawn) 3.1

Returns the measured growth inhibition for the input molecule. Input: O=C(O)c1c(Cl)c(Cl)c(Cl)c(C(=O)O)c1Cl 7.25

What does the data say about its growth inhibition? Entry: COC(=O)C(C)(C)c1ccccc1C(C)(C)C(=O)OC -1.4

Query: growth inhibition; subject: O=C(O)C#Cc1cccnc1 0.75

What measured growth inhibition goes with Cc1ccc(O)cc1C=C(Cl)Cl ? 35.6

Which growth inhibition value is on record for NC(=O)NC(=O)/C=C/C(=O)O ? -4.15

Please report the recorded growth inhibition for COCCCn1cnn2c(=O)c3ccccc3nc2c1=O . 23.8

Need growth inhibition, item CCOC(=O)c1c(NC2=NCCC2)n[nH]c1N 15

---

Assay: NCI Yeast Anticancer Drug Screen. Data for the mec2-1 strain (AID 157)
Conditions: S. cerevisiae mec2-1 strain, at 50.0 µM, hits give high values
Description: Growth inhibition of yeast strains with defined genetic alterations is measured as a screen for potential anti-cancer activity. Selected strains with alterations in DNA damage repair or cell cycle control were exposed to compounds and growth inhibition was measured relative to vehicle treated controls. The strain used in this assay is mec2-1
The panel holds about 79,000 compounds, 15% with a hit somewhere; the sample as a whole holds those more often. Active and inactive are the calls of the source. Cut-off read from the data, not from the text of the source: active = growth inhibition above about 70%; inactive = the rest.
assay.readout: growth inhibition

Below are worked cases with known answers.
O=C(NC(CS)C(=O)O)c1cnc2ccccc2n1 (stereo not given); -12.9% (inactive)
O=C1COc2cc(O)cc(O)c21; 3.7% (inactive)
CCOC(=O)C(CC(c1ccc2c(c1)OCO2)C(C(=O)N(C(C)C)C(C)C)[N+](=O)[O-])C(=O)OCC (stereo not given); 21.4% (inactive)
CCN(CC)C1=Nc2ccccc2N(c2ccccc2)C(=S)C1; 25.5% (inactive)
COc1ccccc1C(N)c1ccccc1 (stereo not given); -0.75% (inactive)
COC1CC(N=[N+]=[N-])C(OS(C)(=O)=O)C(C)O1 (stereo not given); 22.1% (inactive)

Recorded growth inhibition of Cc1cccc(N=Nc2c(C)nc(N)nc2C)c1C , please. 6.55% (inactive)

Can you look up the measured growth inhibition of COc1ccc(C(C)=O)c(C)c1OC for me? 3.65% (inactive)

---

assay: NCI Yeast Anticancer Drug Screen. Data for the rad50 strain (AID 155);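 also: 0% = growth of vehicle-only cultures of the same strain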; conditions: S. cerevisiae rad50 strain growth inhibition; at 50.0 µM
About 79,000 compounds went through this panel and 15% of them were active in at least one assay; those are over-represented in the sample as a whole. Active and inactive are the calls of the source. Rule as the data show it: active = growth inhibition above about 70%; inactive = the rest.
Please answer using one outcome listed in class 1 (active), class 0 (inactive)

Observe how each entry below is paired with its result.
Cn1c(=O)c(-c2ccccc2)c(O)c2ccccc21; class 0
CCCCNCC(=O)O[C@]1(CC)C(=O)OCc2c1cc1n(c2=O)Cc2cc3ccccc3nc2-1; class 1
COc1ccc(/C=C\c2cccc(Cl)c2)cc1; class 0

Test call for this molecule, please: CCC1(CC)C(=O)N(C(=O)c2ccccc2)N(C(=O)c2ccc(Cl)cc2)C1=O class 0

Tell me the recorded outcome of this test for COc1cccc(/C=C(\NC(C)=O)c2nc3ccc(Cl)cc3[nH]2)c1 . class 0

Fill in: this test's call for COc1cc2c(c(OC)c1OC)C(=O)[C@@H](O)[C@H]2N is ___ class 0

Outcome? Nc1ccc(C(C(=O)O)c2ccccc2)cc1Cl (centres undefined) class 0

Query: recorded result category for Cc1ccc(N=Nc2ccc(C)cc2NC(=O)c2ccc(Cl)cc2)cc1 in this test class 0

# fetch the recorded call for O=[N+]([O-])[C@@H]1C[C@@H]2C=C[C@H]1CC2 here class 0

Please share the test call associated with CCCCCCCCCCCCCCCCN(C)C(=S)c1ccc(OC)cc1 . class 0

---

experiment: NCI Yeast Anticancer Drug Screen. Data for the bub3 strain (AID 167); details: S. cerevisiae bub3 mutant strain, at 50.0 µM, hits give high values
Compounds without any hit were thinned out: in the full panel of roughly 79,000, 15% have a hit.
Listed next: entries and their corresponding growth inhibition.
API: value field is a number in %; no unit string.

C[n+]1c(/C=C/c2ccc3c(c2)OCO3)ccc2ccccc21; 14.1
O=[N+]([O-])c1cccc(S/N=C/c2c(O)ccc3ccccc23)c1; 98.5
COC(=O)CCCN1C(=O)c2ccccc2C1=O; 5.6

Returns the measured growth inhibition for the input compound. Input: CCOC(=O)C1CC(=O)N(Cc2ccccc2)C(=O)N1 (stereo unspecified) 22.1

Tell me the measured growth inhibition of CC(=O)Nc1nc(C)c(S(=O)(=O)Cl)s1 , please. 14.8

Would you mind telling me what growth inhibition value was observed for CCOc1cn(C2OC(CO)C(O)C2O)c(=O)[nH]c1=O (stereo unspecified) ? -25.2

// lookup growth inhibition for COc1ccc(S(=O)c2coc3ccccc3c2=O)cc1 (stereo unspecified) 28.1

For COc1ccc(C)cc1S(=O)(=O)c1c(Cl)cccc1[N+](=O)[O-] , what is its reported growth inhibition? -1.3

Which value of growth inhibition has been reported for CNC(=O)/C=C/C1=CN2C(=O)c3ccc(C)c(O)c3NC(OC)C2C1 (stereo unspecified) in the records? 92.3
